tgt: T1, ANTIBODY EXPRESSION CONTROL
T1 construct: also called mouse anti-canine antibody (capture reagent of the expression control ELISA)
experiment_notes: SPR Biacore, expression control
quantity_measured: koff

| binder | result |
| --- | --- |
| Mu_09E09_VL (SEQ ID NO: 37)_N34A (antibody, V domains shown) VH: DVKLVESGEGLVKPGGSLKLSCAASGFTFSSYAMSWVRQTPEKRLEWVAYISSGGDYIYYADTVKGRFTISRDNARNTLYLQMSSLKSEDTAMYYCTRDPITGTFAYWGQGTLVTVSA VL: DLQMTQTTSSLSASLGDRVTISCRASQDINNYLAWYQQKPDGTVKLLIYYTSTLHSGVPSRFSGSGSGTDYSLTISNLEQEDIATYFCQQGNTLPWTFGGGTKLEIKR | 8.91e-05 s⁻¹ |
| Mu_19F07_VL (SEQ ID NO: 49)_F94A (antibody, V domains shown) VH: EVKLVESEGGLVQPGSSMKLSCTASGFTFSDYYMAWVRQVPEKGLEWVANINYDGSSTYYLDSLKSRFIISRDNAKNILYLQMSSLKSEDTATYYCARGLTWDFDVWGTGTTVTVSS VL: DIVMTQSHKFMSPSVGDRVSITCKASQDVDTAVAWYQQKPGQSPKLLIYLASTRHTGVPDRFTGSGSGTDFTLTISNVQSEDLADYFCQQYSRAPLTFGAGTKLELKR | 5.35e-05 s⁻¹ |
| Mu_02D09_VH (SEQ ID NO: 31)_G33A (antibody, V domains shown) VH: EVQLVESGGGLVKPGGSLTLSCAASGFTFSDYAMHWLRQAPEKGLEWVAYISSGSRAVFFADTVKGRFTISRDNAKNTLFLQMTSLRSDDTAMYYCARDRYDGRGFAYWGQGTLVTVSA VL: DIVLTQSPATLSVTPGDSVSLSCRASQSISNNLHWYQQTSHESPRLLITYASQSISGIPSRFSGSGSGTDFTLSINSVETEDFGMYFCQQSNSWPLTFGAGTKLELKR | 7.35e-06 s⁻¹ |
| Mu_19F07_VL (SEQ ID NO: 49)_L50A (antibody, V domains shown) VH: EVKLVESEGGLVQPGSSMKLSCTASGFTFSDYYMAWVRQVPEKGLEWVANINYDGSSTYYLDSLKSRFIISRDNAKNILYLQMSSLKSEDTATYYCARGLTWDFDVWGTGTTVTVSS VL: DIVMTQSHKFMSPSVGDRVSITCKASQDVDTAVAWYQQKPGQSPKLLIYAASTRHTGVPDRFTGSGSGTDFTLTISNVQSEDLADYFCQQYSRFPLTFGAGTKLELKR | 4.8e-05 s⁻¹ |
| Mu_02D09_VL (SEQ ID NO: 33)_S56A (antibody, V domains shown) VH: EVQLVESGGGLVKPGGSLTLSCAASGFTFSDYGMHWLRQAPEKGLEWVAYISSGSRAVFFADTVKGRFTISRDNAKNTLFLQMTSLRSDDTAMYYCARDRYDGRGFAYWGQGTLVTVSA VL: DIVLTQSPATLSVTPGDSVSLSCRASQSISNNLHWYQQTSHESPRLLITYASQSIAGIPSRFSGSGSGTDFTLSINSVETEDFGMYFCQQSNSWPLTFGAGTKLELKR | 0.000111 s⁻¹ |
